biological target: biotinylated His-Avi-TEAD (194-411) (UniProt P28347); assay: SSM screen, enrichment after two rounds of sorting
Recorded enrichment score for the following binders
READOUT LABEL: enrichment score

In [3]: df
Out[3]:
                                     binder     readout_label  value_observed
0  GSPDEYIERAKECCKKGPIQCCLRYFEESGDPNVMLICLFCP (designed binder) [D16P variant of SEQ ID NO: 1]  enrichment score           -4.62
1  GSPDEYIERAKECCKKGDQQCCLRYFEESGDPNVMLICLFCP (designed binder) [I17Q variant of SEQ ID NO: 1]  enrichment score            -3.1
2  GSPDEYIERAKECCKKGDIDCCLRYFEESGDPNVMLICLFCP (designed binder) [Q18D variant of SEQ ID NO: 1]  enrichment score           -0.19
3  GSPDEYIEPAKECCKKGDIQCCLRYFEESGDPNVMLICLFCP (designed binder) [R07P variant of SEQ ID NO: 1]  enrichment score           -2.49
4  GSPDEYIERAKECCKKGDIMCCLRYFEESGDPNVMLICLFCP (designed binder) [Q18M variant of SEQ ID NO: 1]  enrichment score           -9.52
5  GSPDEYIERAKECCKKNDIQCCLRYFEESGDPNVMLICLFCP (designed binder) [G15N variant of SEQ ID NO: 1]  enrichment score            3.06

Where do these numbers come from? They come from patent US20230151068A1.
